Data origin: patent US7863449B2

# system.tested: M1 muscarinic receptor (Homo sapiens, UniProt P11229)
# Construct: expressed in transfected cells; host or cells: CHO (M1-CHO)
# Sequence (P11229 whole entry): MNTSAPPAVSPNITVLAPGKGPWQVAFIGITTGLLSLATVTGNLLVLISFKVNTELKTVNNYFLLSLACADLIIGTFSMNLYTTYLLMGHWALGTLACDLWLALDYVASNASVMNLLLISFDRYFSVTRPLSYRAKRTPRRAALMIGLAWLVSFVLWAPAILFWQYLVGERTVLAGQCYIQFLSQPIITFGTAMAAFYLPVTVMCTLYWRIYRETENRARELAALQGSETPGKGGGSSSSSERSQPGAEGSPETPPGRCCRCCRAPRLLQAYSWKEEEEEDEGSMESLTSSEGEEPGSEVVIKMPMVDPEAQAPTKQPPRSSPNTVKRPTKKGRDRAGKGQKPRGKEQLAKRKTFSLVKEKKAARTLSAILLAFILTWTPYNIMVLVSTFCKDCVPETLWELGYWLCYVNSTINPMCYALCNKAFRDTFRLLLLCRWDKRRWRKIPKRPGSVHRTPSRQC
# protocol.text: Functional mobilization of intracellular calcium (FLIPR), M1-CHO cells
# Assay type: cell-based
# setup.conditions: 100% efficacy is the maximum response obtained using Carbachol as a control
# Method: Functional Mobilization of Intracellular Calcium to Determine Muscarinic Receptor Activity: […] Compounds are prepared at a 2× fold concentration in a 96-well plate (round bottom, Costar Corning cat# 3656), by reconstituting the pre-spotted compounds in bath 1 containing 1 mM probenecid. […] In both assay modes, the fluorescence is recorded for 60 sec (excitation wavelength is […] and emission wavelength 540 nm) using the FLIPR 3 instrument. […]
observation.type: Emax

{"molecule": "CCOC(=O)N1C2CCC1CC(N1CCC3(CC1)CN(c1cccc(OC)c1)Cc1ccccc13)C2 (stereo not shown)", "recorded.measurement": "25 to 100%"}

What value of Emax has been reported for the following molecule? CC(=O)N1Cc2ccccc2C2(CCN(C3CCN(C(=O)OC(C)(C)C)CC3)CC2)C1
25 to 100%

What value of Emax has been reported for the following molecule? CCOC(=O)N1CCC(N2CCC3(CC2)CN(C(=O)c2ccccn2)Cc2ccccc23)CC1
25 to 100%

What value of Emax has been reported for the following molecule? CCC(=O)Oc1ccc(CN2CCC3(CC2)CN(C(C)=O)Cc2ccccc23)cc1
< 25%

What value of Emax has been reported for the following molecule? COc1ccc(CN2CCC3(CC2)CN(C(C)=O)Cc2ccccc23)cc1
< 25%

What value of Emax has been reported for the following molecule? CCOC(=O)N1C2CCC1CC(N1CCC3(CC1)CN(S(C)(=O)=O)Cc1ccccc13)C2 (stereo not shown)
25 to 100%

What value of Emax has been reported for the following molecule? CCOC(=O)N1CCC(CN2CCC3(CC2)CN(C(=O)N(C)C)Cc2ccccc23)CC1
25 to 100%

What value of Emax has been reported for the following molecule? O=C(C1CC1)N1Cc2ccccc2C2(CCN(C3CC4CCC(C3)N4C(=O)OC3CCC3)CC2)C1 (stereo not shown)
25 to 100%
